Origin of values: paper PMC10397247

# testedSystem: T1, 4H454-bA
# T1 chain: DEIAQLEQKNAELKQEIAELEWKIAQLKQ
# testSummary: two-hybrid library CCNG1;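 further: natural log of median RNA to DNA barcode read ratio; higher means stronger binding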
readoutName: interaction score
Lab note: write the figure by itself, no unit.

Consider the following illustrative entries.
{"columns": ["binder", "interaction score"],
 "data": [
  ["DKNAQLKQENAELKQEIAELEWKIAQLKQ [4H3782-bA]", 1.64],
  ["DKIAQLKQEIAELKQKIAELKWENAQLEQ [4H2667-bA]", 1.25],
  ["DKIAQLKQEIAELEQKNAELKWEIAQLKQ [4H2618-bA]", 0.854],
  ["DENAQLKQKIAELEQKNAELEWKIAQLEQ [4H1845-bA]", -0.0982],
  ["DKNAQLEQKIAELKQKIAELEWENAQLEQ [4H3427-bA]", -0.617]
]}

Next:
// query GET /values?readout=interaction score&item= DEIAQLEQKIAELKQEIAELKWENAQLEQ [4H331-bA]
// result 0.885
